Ref: patent US4680382A

test system: P388/S; assay: In vivo activity against P388/S (adriamycin sensitive) leukemia, Table VII; set-up: species or system BDF1 mice; settings: at optimal dose
Metric Name: P388/S tumor-free survivors/total on day 60

Problem: Sample COc1cccc2c1C(=O)c1c(O)c3c(c(O)c1C2=O)C[C@@](O)(C(=O)CO)C[C@@H]3O[C@H]1C[C@H](N)[C@H](O)[C@H](C)O1 [adriamycin, reference compound] — what was its P388/S tumor-free survivors/total on day 60?
Solution: 1/8

---

Exercise: for every item that follows, state its recorded P388/ADR optimal dose.
tested on: P388/ADR; assay: In vivo activity against P388/adriamycin-resistant leukemia; set-up: species or system BDF1 mice; conditions: ip, days 1, 5 and 9
*1 amine or outer side, *2 acyl side, *3 side chain or, on linkers, in order; H or OH if unused. Where a SMILES comes first, the peptide text is derived from it. Bridges are numbered along the chain shown (N, C = ends). Roman numbers before positions name the chains, in order. [ ]: non-standard residue; d: D form. Actinocin(9to1) = Cc1c2oc3c(C)ccc(C(=O)[*:1])c3nc-2c(C(=O)[*:2])c(N)c1=O; NMeV = CN[C@H](C(=O)O)C(C)C; Sar = CNCC(=O)O
Answers are plain numbers, in mg/kg.

// solved cases for P388/ADR optimal dose follow
{"columns": ["Compound", "Reading"],
 "data": [
  ["Cc1c2oc3c(C)c4oc(-c5ccccc5)nc4c(C(=O)NC4C(=O)NC(C(C)C)C(=O)N5CCCC5C(=O)N(C)CC(=O)N(C)C(C(C)C)C(=O)OC4C)c3nc-2c(C(=O)NC2C(=O)NC(C(C)C)C(=O)N3CCCC3C(=O)N(C)CC(=O)N(C)C(C(C)C)C(=O)OC2C)c(N)c1=O (stereo not shown)", 0.6],
  ["CO[C@@]12[C@H](COC(N)=O)C3=C(C(=O)C(C)=C(N)C3=O)N1C[C@@H]1N[C@@H]12 [mitomycin C, reference compound]", 3.0]
]}

I'm hoping you can list P388/ADR optimal dose for every compound here, please.
1. Cc1c2oc3c(C)c4oc(-c5ccccc5)nc4c(C(=O)NC4C(=O)NC(C(C)C)C(=O)N5CCCC5C(=O)N(C)CC(=O)N(C)C(C(C)C)C(=O)OC4C)c3nc-2c(C(=O)NC2C(=O)NC(C(C)C)C(=O)N3CCCC3C(=O)N(C)CC(=O)N(C)C(C(C)C)C(=O)OC2C)cc1=O (stereo not shown) [10a, 2-Phenyl-AMD--OZL]
2. Cc1c2oc3c(C)ccc(C(=O)N[C@@H]4C(=O)N[C@H](C(C)C)C(=O)N5CCC[C@H]5C(=O)N(C)CC(=O)N(C)[C@@H](C(C)C)C(=O)O[C@@H]4C)c3nc-2c(C(=O)N[C@@H]2C(=O)N[C@H](C(C)C)C(=O)N3CCC[C@H]3C(=O)N(C)CC(=O)N(C)[C@@H](C(C)C)C(=O)O[C@@H]2C)c(N)c1=O [AMD, Actinomycin D] (I: T[dV]P[Sar][NMeV] / II: T[dV]P[Sar][NMeV]; ester I:1-I:C, II:1-II:C; linker I:N-II:N via Actinocin(9to1))

Solution:
[1.2, 0.25]

---

I'd be grateful if you could share measured percentage stimulation of NADPH oxidation over basal rate for these entries.
target: NADPH cytochrome P-450 reductase (rat liver microsomes) (Rattus norvegicus); assay: Stimulation of NADPH oxidation in rat hepatic microsomal incubations; settings: (drug-stimulated rate - basal rate)/basal rate × 100
Sequence (P00388 whole entry): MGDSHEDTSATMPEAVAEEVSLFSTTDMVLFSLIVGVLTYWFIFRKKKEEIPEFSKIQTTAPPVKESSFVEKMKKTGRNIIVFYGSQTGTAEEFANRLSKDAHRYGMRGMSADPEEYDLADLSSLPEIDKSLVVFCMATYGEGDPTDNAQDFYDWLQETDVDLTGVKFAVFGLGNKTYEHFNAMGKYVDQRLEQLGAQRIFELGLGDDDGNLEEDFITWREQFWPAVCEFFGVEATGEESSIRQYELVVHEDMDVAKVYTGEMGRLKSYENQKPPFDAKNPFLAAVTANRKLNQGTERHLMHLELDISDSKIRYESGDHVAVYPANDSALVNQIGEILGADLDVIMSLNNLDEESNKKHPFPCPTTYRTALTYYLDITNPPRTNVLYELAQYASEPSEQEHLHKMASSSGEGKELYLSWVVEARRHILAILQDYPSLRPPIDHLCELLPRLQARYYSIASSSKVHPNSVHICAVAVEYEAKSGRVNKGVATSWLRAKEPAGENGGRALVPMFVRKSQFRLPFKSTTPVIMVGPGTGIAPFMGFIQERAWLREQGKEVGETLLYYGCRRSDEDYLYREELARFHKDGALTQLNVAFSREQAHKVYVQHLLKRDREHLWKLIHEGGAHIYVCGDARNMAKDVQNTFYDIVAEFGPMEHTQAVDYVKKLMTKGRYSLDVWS
Answers are plain numbers, in %.

Please review the entries below; each comes with its answer.
{"columns": ["Molecule", "Reading"],
 "data": [
  ["CCN(CC)C(=O)c1c2nc3c(C(=O)N(CC)CC)c(N)c(O)c(C)c3oc-2c(C)c(=O)c1N", -2],
  ["CCN(CC)C(=O)c1cc(=O)c(C)c2oc3c(C)c4oc(C)nc4c(C(=O)N(CC)CC)c3nc1-2", -2],
  ["Cc1c2oc3c(C)c(O)cc(C(=O)N[C@@H]4C(=O)N[C@H](C(C)C)C(=O)N5CCC[C@H]5C(=O)N(C)CC(=O)N(C)[C@@H](C(C)C)C(=O)O[C@@H]4C)c3nc-2c(C(=O)N[C@@H]2C(=O)N[C@H](C(C)C)C(=O)N3CCC[C@H]3C(=O)N(C)CC(=O)N(C)[C@@H](C(C)C)C(=O)O[C@@H]2C)c(N)c1=O [2a, 7-hydroxyactinomycin D, reference compound]", 228]
]}

Now consider a different molecule.
Problem: Which measured percentage stimulation of NADPH oxidation over basal rate belongs to Cc1nc2c(C(=O)NC3C(=O)NC(C(C)C)C(=O)N4CCCC4C(=O)N(C)CC(=O)N(C)C(C(C)C)C(=O)OC3C)c3nc4c(C(=O)NC5C(=O)NC(C(C)C)C(=O)N6CCCC6C(=O)N(C)CC(=O)N(C)C(C(C)C)C(=O)OC5C)c(N)c(=O)c(C)c-4oc3c(C)c2o1 (stereo not shown) , tested on NADPH cytochrome P-450 reductase (rat liver microsomes) (Rattus norvegicus)?
Solution: 134
